- Test system: S. aureus K19N
- Type: cell-based, Staphylococcus aureus
- Recorded conditions: clinical strain, broth microdilution, 0.5 × 10^5 CFU/mL, 18 h, 37 °C, at least triplicate
Where no end group is shown, it is not given here.
Threshold 8 µg/mL. MIC below it: True. MIC at it or above: False.

Consider the following illustrative entries.
INSERT INTO measurements (substance, assayed_target, cat) VALUES
  ('KWKLFKKIGAVLKVL-NH2 [CAMEL AcO^−]', 'S. aureus K19N', 'True'),
  ('GLFDVIKKVASVIGGL-NH2 [Citropin 1.1 Cl^−]', 'S. aureus K19N', 'False'),
  ('GLFDVIKKVASVIGGL-NH2 [Citropin 1.1 TFA^−]', 'S. aureus K19N', 'False'),
  ('KWKLFKKIGAVLKVL-NH2 [CAMEL TFA^−]', 'S. aureus K19N', 'True');

Req: State whether 8 µg/mL exceeds MIC recorded for KWKLFKKIGAVLKVL-NH2 [CAMEL Cl^−] .
Resp: True

Req: For this substance, is MIC lower than 8 µg/mL? GLFDVIKKVASVIGGL-NH2 [Citropin 1.1 AcO^−]
Resp: False
